Where these numbers come from: ChEMBL document CHEMBL5370549

Molecular target: Nuclear factor erythroid 2-related factor 2 (Homo sapiens, UniProt Q16236)
Sequence (Q16236 whole entry): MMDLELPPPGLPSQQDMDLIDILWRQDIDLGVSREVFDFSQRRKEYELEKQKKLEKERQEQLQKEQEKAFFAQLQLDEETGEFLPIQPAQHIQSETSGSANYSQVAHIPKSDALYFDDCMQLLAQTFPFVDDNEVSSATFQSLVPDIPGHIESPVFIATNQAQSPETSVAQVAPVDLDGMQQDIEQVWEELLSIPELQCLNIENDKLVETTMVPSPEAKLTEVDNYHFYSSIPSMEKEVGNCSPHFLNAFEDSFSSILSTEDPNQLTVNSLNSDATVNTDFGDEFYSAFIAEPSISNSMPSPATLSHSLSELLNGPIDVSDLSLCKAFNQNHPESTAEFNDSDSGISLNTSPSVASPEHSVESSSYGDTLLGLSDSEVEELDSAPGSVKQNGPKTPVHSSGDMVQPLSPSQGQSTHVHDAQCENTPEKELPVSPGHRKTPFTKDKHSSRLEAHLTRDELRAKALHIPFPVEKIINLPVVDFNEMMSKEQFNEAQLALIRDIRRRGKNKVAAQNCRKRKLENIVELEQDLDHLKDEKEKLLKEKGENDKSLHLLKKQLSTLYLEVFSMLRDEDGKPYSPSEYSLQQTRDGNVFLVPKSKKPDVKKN
Assay: Activation of Nrf2 in human U2OS cells co-expressing Keap1 assessed as induction of Nrf2 nuclear translocation incubated for 6 hrs by PathHunter chemiluminescence based analysis
Where a name gives a salt, the structure may show the parent alone.
In this section we review reported EC50 values for a set of compounds.

{"compound": "COc1cccnc1S(=O)(=O)/C=C/c1ccccc1C(F)(F)F", "relation-sign": "=", "EC50 / nM": 146}
{"compound": "COc1cccnc1S(=O)(=O)/C=C/c1ccccc1Cl", "relation-sign": "=", "EC50 / nM": 76}
{"compound": "COc1ccncc1S(=O)(=O)/C=C/c1ncccc1Cl", "relation-sign": "=", "EC50 / nM": 51}
{"compound": "COc1ccnc(S(=O)(=O)/C=C/c2ccncc2Cl)c1", "relation-sign": "=", "EC50 / nM": 32}
{"compound": "COc1ccnc(S(=O)(=O)/C=C/c2ccc(Cl)nc2)c1", "relation-sign": "=", "EC50 / nM": 914}
{"compound": "COc1ncccc1S(=O)(=O)/C=C/c1ccccc1Cl", "relation-sign": "=", "EC50 / nM": 189}
{"compound": "COc1cccc(S(=O)(=O)/C=C/c2ncccc2C(F)(F)F)n1", "relation-sign": "=", "EC50 / nM": 194}
{"compound": "COc1ccnc(S(=O)(=O)/C=C/c2ccccc2Cl)c1", "relation-sign": "=", "EC50 / nM": 58}
{"compound": "COc1ccnc(S(=O)(=O)/C=C/c2ccccc2C(F)(F)F)c1", "relation-sign": "=", "EC50 / nM": 115}
{"compound": "COc1ccnc(S(=O)(=O)/C=C/c2ccc(Cl)cc2)c1", "relation-sign": "=", "EC50 / nM": 1220}
{"compound": "COc1cccnc1S(=O)(=O)/C=C/c1ccccc1F", "relation-sign": "=", "EC50 / nM": 801}
{"compound": "COc1cccc(S(=O)(=O)/C=C/c2ncccc2Cl)n1", "relation-sign": "=", "EC50 / nM": 93}
{"compound": "COc1ccncc1S(=O)(=O)/C=C/c1ccccc1C(F)(F)F", "relation-sign": "=", "EC50 / nM": 248}
{"compound": "COc1ccnc(S(=O)(=O)/C=C/c2ncccc2Cl)c1", "relation-sign": "=", "EC50 / nM": 30}
{"compound": "COc1cccc(S(=O)(=O)/C=C/c2ccccc2C(F)(F)F)n1", "relation-sign": "=", "EC50 / nM": 316}
{"compound": "COc1ccc(S(=O)(=O)/C=C/c2ncccc2Cl)nc1", "relation-sign": "=", "EC50 / nM": 33}
{"compound": "COc1cccnc1S(=O)(=O)/C=C/c1ncccc1Cl", "relation-sign": "=", "EC50 / nM": 37}
{"compound": "COC(=O)/C=C/C(=O)O [MONOMETHYL FUMARATE]", "relation-sign": ">", "EC50 / nM": 10000}
{"compound": "COc1ccc(S(=O)(=O)/C=C/c2ncccc2C(F)(F)F)nc1", "relation-sign": "=", "EC50 / nM": 275}
{"compound": "COc1cccc(S(=O)(=O)/C=C/c2ccccc2Cl)n1", "relation-sign": "=", "EC50 / nM": 231}
{"compound": "COc1ncccc1S(=O)(=O)/C=C/c1ncccc1Cl", "relation-sign": "=", "EC50 / nM": 75}
{"compound": "COc1ccnc(S(=O)(=O)/C=C/c2cccc(Cl)c2)c1", "relation-sign": "=", "EC50 / nM": 824}
{"compound": "COc1ccnc(S(=O)(=O)/C=C/c2cccnc2Cl)c1", "relation-sign": "=", "EC50 / nM": 49}
{"compound": "COC(=O)/C=C/C(=O)OC [DIMETHYL FUMARATE]", "relation-sign": "=", "EC50 / nM": 5110}
{"compound": "COc1ccnc(S(=O)(=O)/C=C/c2ccc(Cl)cn2)c1", "relation-sign": "=", "EC50 / nM": 1310}

---

Target: UniProtKB P33261
Sequence (P33261 whole entry): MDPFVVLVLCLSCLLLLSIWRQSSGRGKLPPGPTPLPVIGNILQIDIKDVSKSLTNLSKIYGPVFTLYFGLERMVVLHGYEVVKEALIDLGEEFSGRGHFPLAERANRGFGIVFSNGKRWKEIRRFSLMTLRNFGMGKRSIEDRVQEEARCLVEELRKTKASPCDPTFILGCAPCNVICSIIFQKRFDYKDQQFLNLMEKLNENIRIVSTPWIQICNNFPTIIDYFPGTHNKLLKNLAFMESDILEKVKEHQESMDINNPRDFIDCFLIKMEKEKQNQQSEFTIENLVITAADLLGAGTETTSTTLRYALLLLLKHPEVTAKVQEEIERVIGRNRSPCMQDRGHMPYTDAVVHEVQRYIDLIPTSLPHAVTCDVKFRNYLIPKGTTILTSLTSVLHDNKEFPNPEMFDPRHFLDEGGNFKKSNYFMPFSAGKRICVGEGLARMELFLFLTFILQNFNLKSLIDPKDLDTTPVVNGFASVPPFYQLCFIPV
Test: Inhibition of CYP2C19 (unknown origin) assessed as enzyme activity at 10 uM relative to control
Type: ADME
Design: scale not given: the % may be the effect or the level left
Settings: read-out: Activity
activity at 10 µM vs 30%: less than gives label 1; not less than gives label 0.

{"molecule": "COc1cccnc1S(=O)(=O)/C=C/c1ccccc1C(F)(F)F", "class-assignment": "label 0"}
{"molecule": "COc1cccnc1S(=O)(=O)/C=C/c1ncccc1Cl", "class-assignment": "label 0"}
{"molecule": "COc1cccc(S(=O)(=O)/C=C/c2ccccc2C(F)(F)F)n1", "class-assignment": "label 1"}
{"molecule": "COc1cccnc1C(=O)/C=C/c1ccccc1C(F)(F)F", "class-assignment": "label 1"}
{"molecule": "COc1cccnc1/C=C/S(=O)(=O)c1ncccc1OC", "class-assignment": "label 0"}
{"molecule": "COc1cccnc1[S+]([O-])/C=C/c1ccccc1C(F)(F)F (stereo unspecified)", "class-assignment": "label 0"}

---

# activity at 10 µM listing for each entry below
Molecular target: CYP2D6 (Homo sapiens, UniProt P10635)
Sequence (P10635 whole entry): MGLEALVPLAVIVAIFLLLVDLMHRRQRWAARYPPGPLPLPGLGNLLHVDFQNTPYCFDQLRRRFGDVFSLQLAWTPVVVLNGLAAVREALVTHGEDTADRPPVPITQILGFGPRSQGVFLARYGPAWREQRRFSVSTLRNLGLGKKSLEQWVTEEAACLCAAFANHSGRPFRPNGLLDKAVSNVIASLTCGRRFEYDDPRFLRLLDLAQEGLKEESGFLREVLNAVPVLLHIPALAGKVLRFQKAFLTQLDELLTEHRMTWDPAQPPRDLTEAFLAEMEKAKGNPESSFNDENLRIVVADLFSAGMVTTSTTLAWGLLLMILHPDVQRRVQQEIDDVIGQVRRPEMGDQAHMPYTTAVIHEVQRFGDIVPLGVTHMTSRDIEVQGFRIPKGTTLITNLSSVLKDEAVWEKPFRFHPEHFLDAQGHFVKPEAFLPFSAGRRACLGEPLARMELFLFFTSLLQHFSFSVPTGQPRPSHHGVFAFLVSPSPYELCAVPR
Assay: Inhibition of CYP2D6 (unknown origin) assessed as enzyme activity at 10 uM relative to control
Assay type: ADME
Set-up: scale not given: the % may be the effect or the level left
Details: read-out: Activity

{"compound": "COc1ccnc(S(=O)(=O)/C=C/c2ncccc2C(F)(F)F)c1", "system-under-test": "CYP2D6 (Homo sapiens, UniProt P10635)", "unit-info": "%", "relation-sign": ">", "activity at 10 µM": 99}
{"compound": "COc1ccc(S(=O)(=O)/C=C/c2ncccc2C(F)(F)F)nc1", "system-under-test": "CYP2D6 (Homo sapiens, UniProt P10635)", "unit-info": "%", "relation-sign": ">", "activity at 10 µM": 99}
{"compound": "COc1ccnc(S(=O)(=O)/C=C/c2ccnc(Cl)c2)c1", "system-under-test": "CYP2D6 (Homo sapiens, UniProt P10635)", "unit-info": "%", "relation-sign": ">", "activity at 10 µM": 99}
{"compound": "COc1cccc(S(=O)(=O)/C=C/c2ccccc2C(F)(F)F)n1", "system-under-test": "CYP2D6 (Homo sapiens, UniProt P10635)", "unit-info": "%", "relation-sign": "=", "activity at 10 µM": 91.7}
{"compound": "COc1ccnc([S+]([O-])/C=C/c2ccccc2C(F)(F)F)c1 (configuration not stated)", "system-under-test": "CYP2D6 (Homo sapiens, UniProt P10635)", "unit-info": "%", "relation-sign": "=", "activity at 10 µM": 85.7}
{"compound": "COc1ccnc(S(=O)(=O)/C=C/c2ncccc2Cl)c1", "system-under-test": "CYP2D6 (Homo sapiens, UniProt P10635)", "unit-info": "%", "relation-sign": "=", "activity at 10 µM": 100}
{"compound": "COc1ccnc(S(=O)(=O)/C=C/c2ccncc2Cl)c1", "system-under-test": "CYP2D6 (Homo sapiens, UniProt P10635)", "unit-info": "%", "relation-sign": "=", "activity at 10 µM": 69.8}
{"compound": "COc1ccncc1S(=O)(=O)/C=C/c1ccccc1C(F)(F)F", "system-under-test": "CYP2D6 (Homo sapiens, UniProt P10635)", "unit-info": "%", "relation-sign": "=", "activity at 10 µM": 85.1}
{"compound": "COc1ccnc(S(=O)(=O)/C=C/c2ccc(Cl)cn2)c1", "system-under-test": "CYP2D6 (Homo sapiens, UniProt P10635)", "unit-info": "%", "relation-sign": "=", "activity at 10 µM": 96.3}
{"compound": "COc1ccncc1S(=O)(=O)/C=C/c1ncccc1Cl", "system-under-test": "CYP2D6 (Homo sapiens, UniProt P10635)", "unit-info": "%", "relation-sign": "=", "activity at 10 µM": 88.7}
{"compound": "COc1cccnc1C(=O)/C=C/c1ccccc1C(F)(F)F", "system-under-test": "CYP2D6 (Homo sapiens, UniProt P10635)", "unit-info": "%", "relation-sign": "=", "activity at 10 µM": 91.3}
{"compound": "COc1cccnc1S(=O)(=O)/C=C/c1ncccc1Cl", "system-under-test": "CYP2D6 (Homo sapiens, UniProt P10635)", "unit-info": "%", "relation-sign": ">", "activity at 10 µM": 99}
{"compound": "COc1ccc(S(=O)(=O)/C=C/c2ncccc2Cl)nc1", "system-under-test": "CYP2D6 (Homo sapiens, UniProt P10635)", "unit-info": "%", "relation-sign": ">", "activity at 10 µM": 99}
{"compound": "COc1ncccc1S(=O)(=O)/C=C/c1ncccc1C(F)(F)F", "system-under-test": "CYP2D6 (Homo sapiens, UniProt P10635)", "unit-info": "%", "relation-sign": ">", "activity at 10 µM": 99}
{"compound": "COc1ccnc(S(=O)(=O)/C=C/c2cccnc2Cl)c1", "system-under-test": "CYP2D6 (Homo sapiens, UniProt P10635)", "unit-info": "%", "relation-sign": "=", "activity at 10 µM": 99.8}
{"compound": "COc1cccnc1S(=O)(=O)/C=C/c1ncccc1C(F)(F)F", "system-under-test": "CYP2D6 (Homo sapiens, UniProt P10635)", "unit-info": "%", "relation-sign": ">", "activity at 10 µM": 99}
{"compound": "COc1cccc(S(=O)(=O)/C=C/c2ncccc2C(F)(F)F)n1", "system-under-test": "CYP2D6 (Homo sapiens, UniProt P10635)", "unit-info": "%", "relation-sign": ">", "activity at 10 µM": 99}
